tested on: HOP-62; assay: NCI tumour cell line growth inhibition, 48 h
Calls of active or inactive are those of the source. Cut-off read from the data, not from the text of the source: active = GI50 up to about 1.1 µM and inactive = higher.
Attribute: GI50

# annotated cases, reported GI50 shown
INSERT INTO assay_data (molecule, reported_measurement) VALUES
  ('C[Si](C)(C)/N=C1\N2C(=NC1(C(F)(F)F)C(F)(F)F)Sc1ccccc12', '> 50 µM (inactive)'),
  ('Nn1c(-c2ccccc2)n[nH]c1=O', '> 100 µM (inactive)'),
  ('CC1(C)O[C@H]2OC(CO)C(OS(C)(=O)=O)[C@H]2O1 (stereo partly specified)', '> 100 µM (inactive)');

Ask: Sample C[N+](C)([O-])CCCNc1ccnc2cccc([N+](=O)[O-])c12 — what was its GI50?
Result: 83 µM (inactive)

Ask: Consider the molecule N=c1oc2ccccc2cc1-c1nc2ccccc2[nH]1 and give its measured GI50.
Result: 53 µM (inactive)

Ask: Give its GI50 value. Item: COc1c(C(C)(C)C)cc(CC2C(=O)C=CC2=O)cc1C(C)(C)C
Result: 18.4 µM (inactive)

Ask: Look up GI50: CCCC(O)c1ccc2[nH]c3c(C)cc([N+](=O)[O-])c(C)c3c2c1 (stereo unspecified)
Result: > 100 µM (inactive)

Ask: # query: GI50 of entry S=C(c1c[nH]c2ccccc12)N1CCN(Cc2ccccc2)CC1
Result: 18.5 µM (inactive)

Ask: Given the entry COc1cccc([C@@H]2C/C(=N\NC(=O)C(=O)N[C@@H](C)c3ccccc3)c3ccccc3N2)c1 , report its measured GI50.
Result: 76.6 µM (inactive)

Ask: Which GI50 is listed for NC(=O)c1ncn(C2CCC(CP(=O)(O)O)C2)c1N (stereo unspecified) ?
Result: > 100 µM (inactive)

Ask: What GI50 value was documented for this molecule, Cc1cn(C2CC(O)C(COC(N)=O)O2)c(=O)[nH]c1=O (stereo unspecified) ?
Result: > 100 µM (inactive)
